The measurements presented in this section are drawn from patent US20050142531A1.

Assay Method Text: pKa, pI and % salt of peptidic buffers
Type: physicochemical
Condition Notes: Table 2, third basic pKa
Square brackets hold non-standard residues; d marks the D form. Peptide text beside a SMILES is read from it. Orn = NCCC[C@H](N)C(=O)O
Property Label: pka B (basic pKa)

compound="NCCCC[C@H](NC(=O)[C@@H](N)Cc1c[nH]cn1)C(=O)O [His-Lys] (H-His-Lys-OH; N-terminus and C-terminus assumed)" number=11.00
compound=NCCC[C@H](N)C(=O)N[C@@H](Cc1c[nH]cn1)C(=O)O number=11.00
compound="NCCC[C@H](NC(=O)[C@@H](N)Cc1c[nH]cn1)C(=O)O [His-Ornithine] (H-His-[Orn]-OH; N-terminus and C-terminus assumed)" number=11.00
compound="NCC(O)CC[C@H](N)C(=O)N[C@@H](Cc1c[nH]cn1)C(=O)O (stereo partly shown) [Hydroxylysine-His]" number=9.70
compound="NCC(O)CC[C@H](NC(=O)[C@@H](N)Cc1c[nH]cn1)C(=O)O (stereo partly shown) [His-Hydroxylysine]" number=9.70
compound=NCCCC[C@H](N)C(=O)N[C@@H](Cc1c[nH]cn1)C(=O)O number=11.00
compound=N[C@@H](Cc1c[nH]cn1)C(=O)N[C@@H](Cc1c[nH]cn1)C(=O)O number=7.95
